Origin of measurements: the supplement of paper PMC8728848

Target: Neu5Ac(a2-6)GalNAc(b1-4)GlcNAc
Experiment: glycan array binding signal (z-score within array); higher = stronger binding
Details: glycan notation: IUPAC condensed, linker removed
The entries come from a sample that favours the strongest signals as a whole.
Would you mind telling me the reported glycan array binding signal (z-score) of each entry?
Number only, no unit.

## Input Using known records, supply glycan array binding signal (z-score) for LSectin (Mus musculus), Q8BNX1 (protein) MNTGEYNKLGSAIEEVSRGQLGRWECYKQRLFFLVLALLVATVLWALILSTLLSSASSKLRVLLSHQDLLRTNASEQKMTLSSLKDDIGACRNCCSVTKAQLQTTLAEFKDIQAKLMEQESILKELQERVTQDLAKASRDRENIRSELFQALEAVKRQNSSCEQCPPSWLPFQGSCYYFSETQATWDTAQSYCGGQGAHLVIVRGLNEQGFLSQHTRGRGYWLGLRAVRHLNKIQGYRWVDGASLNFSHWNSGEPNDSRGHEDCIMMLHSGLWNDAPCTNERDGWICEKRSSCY
## Output 3.69

## Input Tell me measured glycan array binding signal (z-score) for Clec12b (Mus musculus), Q149M0 (protein) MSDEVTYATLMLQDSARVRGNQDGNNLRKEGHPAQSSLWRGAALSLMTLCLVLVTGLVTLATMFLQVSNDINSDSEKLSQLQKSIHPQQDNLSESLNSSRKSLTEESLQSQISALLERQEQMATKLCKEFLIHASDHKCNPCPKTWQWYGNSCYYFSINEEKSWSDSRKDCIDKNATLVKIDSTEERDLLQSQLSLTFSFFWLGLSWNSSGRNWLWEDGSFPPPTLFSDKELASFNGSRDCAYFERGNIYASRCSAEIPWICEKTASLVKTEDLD please.
## Output -0.692
